# System: Ipomoea hederacea (IPOHE)
# procedure text: Post-emergence efficacy, glasshouse, evaluated after 13 days
# Format: in vivo
# measurement conditions: Ipomoea hederacea, 312 h; post-emergence application, 500 g/Ha, evaluated after 13 days; read-out: Control of weed species IPOHE (100=total damage to plant; 0=no damage to plant)
# key: entry, value: pest or weed control at 500 g/ha
Please state the figure in %; there is no need to write the unit.

molecule=CCNC(=O)c1cc[n+](CCC(=O)O)nc1 system_name="Ipomoea hederacea (IPOHE)" quantity_unit=% value_reported=70
molecule=CNC(=O)c1cn[n+](CCS(=O)(=O)[O-])cc1-c1ccccc1 system_name="Ipomoea hederacea (IPOHE)" quantity_unit=% value_reported=20
molecule=CCNC(=O)c1cc[n+](C(C)(C)CC(=O)O)nc1 system_name="Ipomoea hederacea (IPOHE)" quantity_unit=% value_reported=60
molecule=CCNC(=O)c1cc[n+](CCS(=O)(=O)[O-])nc1 system_name="Ipomoea hederacea (IPOHE)" quantity_unit=% value_reported=80
molecule=CC(C)NC(=O)c1cc[n+](CCS(=O)(=O)O)nc1 system_name="Ipomoea hederacea (IPOHE)" quantity_unit=% value_reported=60
molecule=O=C(O)CC[n+]1ccc(C(=O)N2CC[S+]([O-])CC2)cn1 system_name="Ipomoea hederacea (IPOHE)" quantity_unit=% value_reported=60

Return reported pest or weed control at 500 g/ha; argument: CC(CO)NC(=O)c1cc[n+](CCC(=O)O)nc1 (stereo not shown)
50

Return reported pest or weed control at 500 g/ha; argument: "O=C(O)CC[n+]1ccc(C(=O)NCC(F)(F)F)cn1"
90

Return reported pest or weed control at 500 g/ha; argument: C[S+]([O-])CCNC(=O)c1cc[n+](CCC(=O)O)nc1 (stereo not shown)
50

Return reported pest or weed control at 500 g/ha; argument: "CN1CCN(C(=O)c2cc[n+](CCC(=O)O)nc2)CC1"
10

* * *

# System: Setaria faberi (SETFA)
# procedure text: Post-emergence efficacy, glasshouse, evaluated after 13 days
# Assay type: in vivo
# measurement conditions: Setaria faberi, 312 h; post-emergence application, 500 g/Ha, evaluated after 13 days; read-out: Control of weed species SETFA (100=total damage to plant; 0=no damage to plant)
measured endpoint: pest or weed control at 500 g/ha
A complete answer gives the number and then names the unit.

Illustrative cases are given below, each with its answer.
line_notation=O=C(O)CC[n+]1ccc(C(=O)NCCc2ncccn2)cn1 value_reported=80%
line_notation=O=C(NCC1CC1)c1cc[n+](CCS(=O)(=O)[O-])nc1 value_reported=80%
line_notation=Cn1ncnc1CCNC(=O)c1cc[n+](CCC(=O)O)nc1 value_reported=90%

Form entry - test system: Setaria faberi (SETFA); read-out: pest or weed control at 500 g/ha; compound: "O=C(NCc1ccccc1)c1cc[n+](CCS(=O)(=O)[O-])nc1"
90%

Form entry - test system: Setaria faberi (SETFA); read-out: pest or weed control at 500 g/ha; compound: "O=C(O)CC[n+]1ccc(C(=O)NC2(C(F)(F)F)CC2)cn1"
90%

* * *

# Test system: Ipomoea hederacea (IPOHE)
# procedure text: Post-emergence efficacy, glasshouse, evaluated after 13 days
# Type: in vivo
# measurement conditions: Ipomoea hederacea, 312 h; post-emergence application, 500 g/Ha, evaluated after 13 days; read-out: Control of weed species IPOHE (100=total damage to plant; 0=no damage to plant)
measured endpoint: pest or weed control at 500 g/ha
A complete answer gives the number and then names the unit.

molecule=CC(C)NC(=O)c1cc[n+](CCC(=O)[O-])nc1 system_name="Ipomoea hederacea (IPOHE)" measured_endpoint="pest or weed control at 500 g/ha" value_reported=60%
molecule="CC1CC1NC(=O)c1cc[n+](CCC(=O)O)nc1 (centres unmarked)" system_name="Ipomoea hederacea (IPOHE)" measured_endpoint="pest or weed control at 500 g/ha" value_reported=50%
molecule=O=C(O)CC[n+]1ccc(C(=O)NCC2CC2)cn1 system_name="Ipomoea hederacea (IPOHE)" measured_endpoint="pest or weed control at 500 g/ha" value_reported=20%
molecule=N#CCNC(=O)c1cc[n+](CCC(=O)O)nc1 system_name="Ipomoea hederacea (IPOHE)" measured_endpoint="pest or weed control at 500 g/ha" value_reported=80%
molecule=C=CCNC(=O)c1cc[n+](CCS(=O)(=O)[O-])nc1 system_name="Ipomoea hederacea (IPOHE)" measured_endpoint="pest or weed control at 500 g/ha" value_reported=70%
molecule=O=C(O)CC[n+]1ccc(C(=O)Nc2ccon2)cn1 system_name="Ipomoea hederacea (IPOHE)" measured_endpoint="pest or weed control at 500 g/ha" value_reported=20%

Return reported pest or weed control at 500 g/ha; argument: "CN(CCS(C)(=O)=O)C(=O)c1cc[n+](CCC(=O)O)nc1"
30%

Return reported pest or weed control at 500 g/ha; argument: "CN(C)C(=O)c1cn[n+](CCS(=O)(=O)O)cc1-c1ccccc1"
30%

Return reported pest or weed control at 500 g/ha; argument: "O=C(NCC1CC1)c1cc[n+](CCS(=O)(=O)[O-])nc1"
60%

Return reported pest or weed control at 500 g/ha; argument: "N#CCCNC(=O)c1cc[n+](CCC(=O)O)nc1"
30%

Return reported pest or weed control at 500 g/ha; argument: "CC#CCNC(=O)c1cc[n+](CCC(=O)O)nc1"
20%

Return reported pest or weed control at 500 g/ha; argument: "CN(C)C(=O)c1cc[n+](CCC(=O)O)nc1"
60%

Return reported pest or weed control at 500 g/ha; argument: "CNC(=O)c1cc[n+](CCC(=O)O)nc1-c1ccccc1"
40%
